Entries whose logP is below 3 take label 1; entries at or above 3 take label 0.

Check out these entries, answers already filled in.
-- ask Given "C=CC" , is recorded logP strictly lower than 3?
-- reply label 1

-- ask Entry to check: "CSc1nnc(C(C)C)c(=O)n1N"
-- reply label 1

-- ask Entry to check: "CNC(=O)Oc1cccc([N+](=O)[O-])c1"
-- reply label 1

---
-- ask Given "O=C1[C@H]2CC=CC[C@H]2C(=O)N1SC(Cl)(Cl)Cl" , is recorded logP strictly lower than 3?
-- reply label 1

-- ask Entry to check: CC(N)C(O)c1cccc(O)c1 (stereo not given)
-- reply label 1

-- ask Entry to check: "NS(=O)(=O)c1ccc([N+](=O)[O-])cc1"
-- reply label 1

Attribution: the SangsterLogP compilation
